molecular target: Cellular tumor antigen p53 (Homo sapiens); experiment: TOX21_p53_BLA_p2_ratio: Tox21 HCT-116 p53 Agonism Beta-lactamase Assay, Ratio, Phase 2 (AID 2283592)
Results filed as inconclusive are left out. Activity calls are given as the source filed them. How the source made its calls: active means hit-call score of the fitted dose curve at least 0.9, where 1 is the maximum; inconclusive means response in the unintended direction; inactive means score below 0.9.
Return exactly one item of label 1 for active, label 0 for inactive

- CC(=O)N(CC(O)CN(C(C)=O)c1c(I)c(C(=O)NCC(O)CO)c(I)c(C(=O)NCC(O)CO)c1I)c1c(I)c(C(=O)NCC(O)CO)c(I)c(C(=O)NCC(O)CO)c1I (stereo unspecified): label 0
- O=C(O)CCC(=O)c1ccc(-c2ccccc2)cc1: label 0
- CC1(C)C(O)C(C)(C)C1O (stereo unspecified): label 0

Q: Returns: the outcome recorded for O=[N+]([O-])c1ccc(F)c(Cl)c1 in this assay.
Result: label 0

Q: Returns: the outcome recorded for CC[C@@H](C)[C@H](N)C(=O)O in this assay.
Result: label 0

Q: Returns: the outcome recorded for CC(C)NCC(O)COc1ccc(COCCOC(C)C)cc1 (stereo unspecified) in this assay.
Result: label 0

Q: Returns: the outcome recorded for O=C1Cc2cc(CCN3CCN(c4nsc5ccccc45)CC3)c(Cl)cc2N1 in this assay.
Result: label 0

----------
Test: TOX21_p53_BLA_p5_viability: Viability Assessment in the Tox21 HCT-116 p53 Agonism Beta-lactamase Assay, Phase 5 (AID 2283600)
Excerpt: TOX21_p53_BLA_p5 is a cell-based, single-readout assay that uses HCT116, a human intestinal cell line, […] in a 1536-well plate.TOX21_p53_BLA_p5_viability is an assay readout measuring cellular ATP content and detected with CellTiter-Glo Luciferase-coupled ATP quantitation.TOX21_p53_BLA_p5_viability used a type of viability reporter where loss-of-signal activity can be used to understand changes in the cell viability. […]
Inconclusive results are not listed. Calls of active or inactive are those of the source. The calls were made as follows: active = hit-call score of the fitted dose curve at least 0.9, where 1 is the maximum; inconclusive = response in the unintended direction; inactive = score below 0.9.
Return exactly one item of active, inactive

- COc1c(N2CCNC(C)C2)c(F)cc2c(=O)c(C(=O)O)cn(C3CC3)c12 (stereo unspecified): inactive
- Cc1cc(O)c(C(C)(C)C)cc1Sc1cc(C(C)(C)C)c(O)cc1C: active
- COC(=O)C(CN)c1c[nH]c2ccc(OC)cc12 (stereo unspecified): inactive
- Cc1cc(S(=O)(=O)O)c(N)cc1Cl: inactive
- CC1(C)CC(N)CC(C)(C)N1: inactive
- OC[C@H]1O[C@H](O[C@H]2O[C@H](CO)[C@@H](O)[C@H](O)[C@H]2O)[C@H](O)[C@@H](O)[C@@H]1O: inactive
- CCN(CC)c1ccc2c(-c3ccc(S(=O)(=O)O)cc3S(=O)(=O)[O-])c3ccc(=[N+](CC)CC)cc-3oc2c1: inactive
- CC(C)Nc1ccccc1: inactive
- C=CC1=C(C(=O)O)N2C(=O)[C@@H](NC(=O)/C(=N\O)c3csc(N)n3)[C@H]2SC1 (stereo in doubt): inactive
- COc1cc(Br)c(C[N+]2(CCOCCC3CCC4CC3C4(C)C)CCOCC2)cc1OC (stereo unspecified): inactive

Q: Returns: the outcome recorded for CC(=NO)C(C)=NO in this assay.
Result: inactive

Q: Returns: the outcome recorded for CC(C)(C(=O)O)c1ccc(C(O)CCCN2CCC(C(O)(c3ccccc3)c3ccccc3)CC2)cc1 (stereo unspecified) in this assay.
Result: inactive

Q: Returns: the outcome recorded for C=CC(=O)CCCCC in this assay.
Result: inactive

Q: Returns: the outcome recorded for CCCCCCCCCCCCCCCCCCCCCC(=O)Nc1ccn([C@@H]2O[C@H](CO)[C@@H](O)[C@@H]2O)c(=O)n1 in this assay.
Result: inactive

Q: Returns: the outcome recorded for CCC(=O)O[C@]1(C(=O)CCl)[C@@H](C)C[C@H]2[C@@H]3C[C@H](F)C4=CC(=O)C=C[C@]4(C)[C@@]3(F)[C@@H](O)C[C@@]21C in this assay.
Result: inactive

----------
test: ATG_PXRE_CIS: Attagene CIS-FACTORIAL HepG2 Assay for human Pregnane X Receptor Element (PXRE) (AID 2282957); settings: HepG2 Attagene CIS-FACTORIAL PXRE reporter, mRNA; actives raise or lower the signal
Active and inactive are the calls of the source. The calls were made as follows: active = hit-call score of the fitted dose curve at least 0.9, where 1 is the maximum; inactive = score below 0.9.
Return exactly one item of t = active, f = inactive

• CC(=O)c1nccs1 = f

Q: Returns: the outcome recorded for CNC(=C[N+](=O)[O-])NCCSCc1csc(CN(C)C)n1 in this assay.
Result: f

Q: Returns: the outcome recorded for CCc1cc(C(N)=S)ccn1 in this assay.
Result: t

Q: Returns: the outcome recorded for C=CCOC(=O)C(=C)C in this assay.
Result: f

Q: Returns: the outcome recorded for Cc1cc2nc3c(=O)[nH]c(=O)nc-3n(C[C@H](O)[C@H](O)[C@H](O)CO)c2cc1C in this assay.
Result: t

Q: Returns: the outcome recorded for CN(C)CCC(c1ccc(Cl)cc1)c1ccccn1 (configuration not stated) in this assay.
Result: f

Q: Returns: the outcome recorded for CCCCCCCCCCCCCC in this assay.
Result: f

----------
assay: ATG_CMV_CIS: Attagene CIS-FACTORIAL HepG2 Assay for human CMV (Internal Marker) (AID 2282928); conditions: HepG2 CMV promoter reporter, transcription factor profiling; actives raise or lower the signal;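 further: endpoint acts as a background internal control marker rather than a target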
Active and inactive are the calls of the source. Rule for the calls: active = hit-call score of the fitted dose curve at least 0.9, where 1 is the maximum; inactive = score below 0.9.
MEASUREMENT_KIND: AC50

- O=C1NC(=O)C2CC=CCC12 (stereo not drawn): inactive
- CCCCC(CC)COC(=O)CS (stereo not drawn): inactive
- C=C(C)C(=O)OCCCCCC: inactive
- CC(C)(C)NC(=O)[C@@H]1CN(Cc2cccnc2)CCN1C[C@@H](O)C[C@@H](Cc1ccccc1)C(=O)N[C@H]1c2ccccc2C[C@H]1O: inactive
- Oc1cccc2ccccc12: 100 µM (active)
- Nc1ccc(S(=O)(=O)Nc2cnc3ccccc3n2)cc1: inactive
- COc1ccccc1OCC(O)CO (stereo not drawn): inactive
- c1cc(N(CC2CO2)CC2CO2)ccc1Cc1ccc(N(CC2CO2)CC2CO2)cc1 (stereo not drawn): 26.6 µM (active)

Q: So what's the measured AC50 for this one? O=C(O)/C=C\C(=O)O
Result: inactive

Q: So what's the measured AC50 for this one? O=C(O)c1ccccc1C(=O)O
Result: inactive

Q: So what's the measured AC50 for this one? COC(=O)[C@]1(C)CCC[C@@]2(C)[C@H]1CC=C1C=C(C(C)C)CC[C@@H]12
Result: 100 µM (active)

Q: So what's the measured AC50 for this one? COc1cccc(OC)c1C(=O)O
Result: inactive

Q: So what's the measured AC50 for this one? CCCN[C@H]1CCc2nc(N)sc2C1
Result: inactive

----------
biological target: Cellular tumor antigen p53 (Homo sapiens); assay: TOX21_p53_BLA_p5_ratio: Tox21 HCT-116 p53 Agonism Beta-lactamase Assay, Ratio, Phase 5 (AID 2283599)
Records with an inconclusive call do not appear. Activity calls are given as the source filed them. How the source made its calls: active means hit-call score of the fitted dose curve at least 0.9, where 1 is the maximum; inconclusive means response in the unintended direction; inactive means score below 0.9.
Return exactly one item of active, inactive

Please review the entries below; each comes with its answer.
• CCN1/C(=C/C=C/c2sc3ccccc3[n+]2CC)Sc2ccccc21 = active
• CCCCS = inactive
• CC(C)CC(=O)CC(C)C = inactive
• O=C(O)c1cccc(-c2noc(-c3ccccc3F)n2)c1 = inactive

Q: Returns: the outcome recorded for NC(=O)c1ccncc1 in this assay.
Result: inactive

Q: Returns: the outcome recorded for COCC(O)CO (centres undefined) in this assay.
Result: inactive

Q: Returns: the outcome recorded for CC(C)(O)C(=O)O in this assay.
Result: inactive

Q: Returns: the outcome recorded for CCCCCCCCCCCCCCCCCCO in this assay.
Result: inactive

Q: Returns: the outcome recorded for COc1cc(NS(=O)(=O)c2ccc(N)cc2)ncn1 in this assay.
Result: inactive

Q: Returns: the outcome recorded for N#C/C(=C1\SCC(c2ccccc2Cl)S1)n1ccnc1 (centres undefined) in this assay.
Result: inactive

----------
assay: TOX21_p53_BLA_p3_viability: Viability Assessment in the Tox21 HCT-116 p53 Agonism Beta-lactamase Assay, Phase 3 (AID 2283593);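 further: cells exposed to compound for 16 h before reading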
Inconclusive results are not listed. Activity calls are given as the source filed them. The calls were made as follows: active = hit-call score of the fitted dose curve at least 0.9, where 1 is the maximum; inconclusive = response in the unintended direction; inactive = score below 0.9.
Return exactly one item of active, inactive

- CCOc1nc2cccc(C(=O)O)c2n1Cc1ccc(-c2ccccc2-c2nn[nH]n2)cc1: active

Q: Returns: the outcome recorded for CSc1ccc2c(c1)C(N1CCN(C)CC1)Cc1ccccc1S2 (stereo not drawn) in this assay.
Result: active

Q: Returns: the outcome recorded for CC(O)[C@@H]1NC(=O)[C@H](Cc2ccccc2)NC(=O)[C@H](C(C)O)NC(=O)[C@H](CCCCN)NC(=O)[C@H](Cc2c[nH]c3ccccc23)NC(=O)[C@H](Cc2ccccc2)NC(=O)[C@H](Cc2ccccc2)NC(=O)[C@H](CC(N)=O)NC(=O)[C@H](CCCCN)NC(=O)[C@@H](NC(=O)CNC(=O)[C@H](C)N)CSSC[C@@H](C(=O)O)NC(=O)[C@H](CO)NC1=O (stereo partly drawn) in this assay.
Result: inactive
